Consider the following molecules; for each one, report its log10(IC50).
- System: CEM cells HIV-1 protection, formazan growth assay
- Assay Protocol: NCI AIDS Antiviral Assay
- Condition Notes: measured here: growth of uninfected CEM cells
Where a SMILES comes first, the peptide text is derived from it. The star is where a group is joined. Cbz = O=C(OCc1ccccc1)*; OBn = c1ccc(CO*)cc1
Heads up, the numbers here are log10 of IC50 in µM units.

Task item: Entry COC(=O)CNC(=O)C(C)NC(=O)C(CC(=O)OCc1ccccc1)NC(=O)OCc1ccccc1 (stereo not drawn) (Cbz-Asp(OBn)-Ala-Gly-OMe; configuration not given here) has what log10(IC50)?
Reply: 2.03

Task item: Entry CNS(=O)(=O)NN(C)S(=O)(=O)c1ccc2ccccc2c1 has what log10(IC50)?
Reply: 2.04

Task item: Entry OC12CCC[N+]1(Cc1ccccc1)CCC2 (centres undefined) has what log10(IC50)?
Reply: 2.85

Task item: Entry O=C1Nc2cc3c(cc2C(=O)N2C/C(=N/O)CC12)OCO3 (centres undefined) has what log10(IC50)?
Reply: 2.28

Task item: Entry COC(=O)C1N=CSCC1(C)O (centres undefined) has what log10(IC50)?
Reply: 2.27

Task item: Entry Nc1ccc(Sc2c3ccccc3nc3ccccc23)cc1 has what log10(IC50)?
Reply: 0.98

Task item: Entry O=[N+]([O-])/C(C(Cl)=C(Cl)Cl)=C1\NCCO1 has what log10(IC50)?
Reply: 2.06
